molecular target: T1, DR4 (TRAIL-R1) Fc, recombinant receptor from R&D Systems (UniProt O00220 24-239, limits assumed); assay: SPR (Biacore): clarified E. coli extract diluted 1:50 injected over immobilised DR4, DR5, DcR1 and RANK; bars are the response as a fraction of the DR5 response
T1 construct: also called soluble TRAIL-R1 Fc; not shown: Fc part of the bought Fc fusion
T1 sequence (O00220 24-239 limits assumed): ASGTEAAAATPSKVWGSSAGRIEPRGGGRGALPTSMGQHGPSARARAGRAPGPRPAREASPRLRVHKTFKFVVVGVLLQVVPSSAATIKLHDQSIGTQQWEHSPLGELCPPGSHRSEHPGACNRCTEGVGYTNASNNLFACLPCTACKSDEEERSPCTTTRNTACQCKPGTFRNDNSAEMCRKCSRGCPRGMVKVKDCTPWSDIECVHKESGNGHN
metric: binding result

TRAIL mutant I220H (ligand) VRERGPQRVAAHITGTRGRSNTLSSPNSKNEKALGRKINSWESSRSGHSFLSNLHLRNGELVIHEKGFYYIYSQTYFRFQEEIKENTKNDKQMVQYIYKYTSYPDPHLLMKSARNSCWSKDAEYGLYSIYQGGIFELKENDRIFVSVTNEHLIDMDHEASFFGAFLVG: binds
TRAIL mutant R149H (ligand) VRERGPQRVAAHITGTRGRSNTLSSPNSKNEKALGHKINSWESSRSGHSFLSNLHLRNGELVIHEKGFYYIYSQTYFRFQEEIKENTKNDKQMVQYIYKYTSYPDPILLMKSARNSCWSKDAEYGLYSIYQGGIFELKENDRIFVSVTNEHLIDMDHEASFFGAFLVG: binds
TRAIL mutant G131R (ligand) VRERGPQRVAAHITGTRRRSNTLSSPNSKNEKALGRKINSWESSRSGHSFLSNLHLRNGELVIHEKGFYYIYSQTYFRFQEEIKENTKNDKQMVQYIYKYTSYPDPILLMKSARNSCWSKDAEYGLYSIYQGGIFELKENDRIFVSVTNEHLIDMDHEASFFGAFLVG: binds
